Assay: Emission properties: luminescence lifetime and quantum luminescence yield in water and D2O
Assay type: physicochemical
Details: H2O; error estimated ±5%
Assign class by Emission τ (luminescence lifetime): not lower than 3 ms means YES; lower than 3 ms means NO.

Reference set (5 entries):
smiles_representation=CCOP(=O)([O-])CN(CC(=O)[O-])Cc1cc(C#Cc2ccc(C(=O)NCCCC(=O)[O-])c3ccccc23)cc(CN(CC(=O)[O-])CP(=O)([O-])OCC)n1.[Na+].[Na+].[Tb+3] qualitative_label=NO
smiles_representation=CCOP(=O)([O-])CN(Cc1cc(C#Cc2ccc(C#CCCCCC(=O)[O-])c3ccccc23)cc(CN(CP(=O)([O-])OCC)CP(=O)([O-])OCC)n1)CP(=O)([O-])OCC.[Eu+3].[Na+].[Na+] qualitative_label=NO
smiles_representation=CCOP(=O)([O-])CN(CC(=O)[O-])Cc1cc(C#Cc2ccc(C#CCCCCC(=O)[O-])c3ccccc23)cc(CN(CC(=O)[O-])CP(=O)([O-])OCC)n1.[Na+].[Na+].[Tb+3] qualitative_label=NO
smiles_representation=CCOP(=O)([O-])CN(Cc1cc(C#Cc2ccc(C(=O)NCCCC(=O)[O-])c3ccccc23)cc(CN(CP(=O)([O-])OCC)CP(=O)([O-])OCC)n1)CP(=O)([O-])OCC.[Na+].[Na+].[Tb+3] qualitative_label=YES
smiles_representation=CCOP(=O)([O-])CN(Cc1cc(C#Cc2ccc(C#CCCCCC(=O)[O-])c3ccccc23)cc(CN(CP(=O)([O-])OCC)CP(=O)([O-])OCC)n1)CP(=O)([O-])OCC.[Na+].[Na+].[Tb+3] qualitative_label=YES

Asked: // inclusive: Emission τ (luminescence lifetime) at least 3 ms? input: CCOP(=O)([O-])CN(CC(=O)[O-])Cc1cc(C#Cc2ccc(C#CCCCCC(=O)[O-])c3ccccc23)cc(CN(CC(=O)[O-])CP(=O)([O-])OCC)n1.[Eu+3].[Na+].[Na+]
Given back: NO

Asked: Textbook exercise: given the entry CCOP(=O)([O-])CN(CC(=O)[O-])Cc1cc(C#Cc2ccc(C(=O)NCCCC(=O)[O-])c3ccccc23)cc(CN(CC(=O)[O-])CP(=O)([O-])OCC)n1.[Eu+3].[Na+].[Na+] , state whether its Emission τ (luminescence lifetime) is greater than or equal to 3 ms.
Given back: NO

Asked: Test whether the compound CCOP(=O)([O-])CN(Cc1cc(C#Cc2ccc(C(=O)NCCCC(=O)[O-])c3ccccc23)cc(CN(CP(=O)([O-])OCC)CP(=O)([O-])OCC)n1)CP(=O)([O-])OCC.[Eu+3].[Na+].[Na+] records Emission τ (luminescence lifetime) of 3 ms or higher.
Given back: NO
